# System: CCRIS mutagenicity, Ames/micronucleus/aberration tests
# experiment notes: CCRIS mutagenicity studies
# measurement conditions: Test System: AMES SALMONELLA TYPHIMURIUM; Strain/Indicator: TA100; Metabolic Activation: RAT LIVER S-9, PHENOBARBITAL AND BETA-NAPHTHOFLAVONE; Method: PREINCUBATION
The source made the active and inactive calls. No rule for the calls is given here.
Response enum: class 1 for active, class 0 for inactive

query: What outcome does the record of this test show for `NC=O` ?
result: class 0

query: Dear colleague, could you share the recorded outcome for `[Cl][Mn][Cl]` when you have a moment?
result: class 0

query: For this compound, state the assay outcome: `OCCO`
result: class 0

query: I would be grateful if you could indicate the recorded call for `Nc1ccc(C=O)cc1` .
result: class 0

query: Outcome? `CNN`
result: class 0

query: Any idea what this test logged for `O=CC=O` ?
result: class 1

query: Could you kindly confirm the outcome this assay logged for `COC(=O)CC(=O)OC` ?
result: class 0

query: Assay result, entry `Sc1ccccc1` — outcome?
result: class 0

query: Kindly provide the recorded test outcome for the following compound: `O=C(S)c1ccccc1`
result: class 0

query: What was the test verdict on `O.O.O.O.O.O.[Cl-].[Cl-].[Ni+2]` ?
result: class 0

---

# Tested on: CCRIS mutagenicity, Ames/micronucleus/aberration tests
# experiment notes: CCRIS mutagenicity studies
# measurement conditions: Test System: AMES SALMONELLA TYPHIMURIUM; Strain/Indicator: TA98; Metabolic Activation: RAT, LIVER, S-9, AROCLOR 1254; Method: STANDARD PLATE
Active and inactive are the calls of the source. The rule behind the calls is not given here.
# output must be one of 1 (yes) for active, 0 (no) for inactive

Take a look at these entries with their results.
Nc1cc(Cl)cc(Cl)c1 | 0 (no)
CC(C)N(C(=O)SCC(Cl)=C(Cl)Cl)C(C)C | 1 (yes)
OCl | 0 (no)

query: Hi team, can someone confirm the assay call for `C[C@@H]1CC[C@@]2(OC1)O[C@H]1C[C@H]3[C@@H]4CC=C5C[C@@H](O)CC[C@]5(C)[C@H]4CC[C@]3(C)[C@H]1[C@@H]2C` ?
result: 0 (no)

query: Which outcome was assigned to `Cc1cc(N(C)C)ccc1N=Nc1ccccc1` in this test?
result: 1 (yes)

---

# System: CCRIS mutagenicity, Ames/micronucleus/aberration tests
# experiment notes: CCRIS mutagenicity studies
# measurement conditions: Test System: AMES SALMONELLA TYPHIMURIUM; Strain/Indicator: TA100; Metabolic Activation: NONE; Method: PREINCUBATION
Activity calls are given as the source filed them. No rule for the calls is given here.
Lab note: assign the record to one of TRUE (active), FALSE (inactive)

O=C1N(CO)C(O)C(O)N1CO (stereo not drawn) | FALSE

query: In this assay, the call recorded for `CC(=C\C1=CCOC1=O)/C=C(C)/C=C/C=C(\C)C(=O)[C@]12O[C@H]1[C@@](O)(CCO)NC2=O` was what?
result: TRUE

query: // param item: `c1ccc2n[nH]nc2c1` ; yields the recorded call
result: FALSE

query: Any idea what this test logged for `C/C(C(=O)O)=C(\Cl)C(=O)O` ?
result: FALSE

query: Fill in: this test's call for `N[C@@H](CCC(=O)N[C@@H](CS/C(Cl)=C(\Cl)C(Cl)=C(Cl)Cl)C(=O)NCC(=O)O)C(=O)O` is ___
result: TRUE

query: Fill in: this test's call for `Cc1ccc(O)c(N)c1` is ___
result: TRUE

---

# Tested on: CCRIS mutagenicity, Ames/micronucleus/aberration tests
# experiment notes: CCRIS mutagenicity studies
# measurement conditions: Test System: AMES SALMONELLA TYPHIMURIUM; Strain/Indicator: TA1535; Metabolic Activation: NONE; Method: STANDARD PLATE
The source made the active and inactive calls. No rule for the calls is given here.
// one of Yes for active, No for inactive, no free text

Solved entries:
O=c1c(O)c(-c2ccc(O)c(O)c2)oc2cc(O)cc(O)c12 | No
O=C(/C=C/c1ccc(O)c(O)c1)O[C@@H]1C[C@](O)(C(=O)O)C[C@@H](O)[C@H]1O | No
COc1ccc2nc(N)sc2c1 | No
CCN(CC)CCCC(C)Nc1ccnc2cc(Cl)ccc12 (centres undefined) | No
[Co] | No
C=C(C)C(=O)OCCO | No
C=C(C)C(=O)OC(C)(C)C | No
Nc1c(O)cccc1[N+](=O)[O-] | No

query: Please let me know the test result on file for `CN(C)CCNS(=O)(=O)c1cccc2cccnc12` .
result: No

query: What classification did `COC(=O)Nc1nc2ccc(O)cc2[nH]1` end up with in this test?
result: No

query: Recorded test outcome, item `CCc1ccco1`
result: No

---

# System: CCRIS mutagenicity, Ames/micronucleus/aberration tests
# experiment notes: CCRIS mutagenicity studies
# measurement conditions: Test System: AMES SALMONELLA TYPHIMURIUM; Strain/Indicator: TA100; Metabolic Activation: HAMSTER, LIVER, S-9, AROCLOR 1254 (30%); Method: PREINCUBATION
# Description: The CCRIS database contains chemical records with carcinogenicity, mutagenicity, tumor promotion, and tumor inhibition test results. It was developed by the National Cancer Institute (NCI). Data are derived from studies cited in primary journals, current awareness tools, NCI reports, and other sources. Test results have been reviewed by experts in carcinogenesis and mutagenesis. CCRIS provides historical information from the years 1985 - 2011. It is no longer updated. […]
Calls of active or inactive are those of the source. How the calls were made is not given here.
outcome measure: mutagenic call

Please review the entries below; each comes with its answer.
CC(C)C(C)C | inactive; negative
O=c1[nH][nH]c(=O)c2cc([N+](=O)[O-])ccc12 | active; positive
Cc1ccc(C#N)cc1 | inactive; negative
OCCCCO | inactive; negative
[O-][Br+2]([O-])O | inactive; negative

query: Could you share what mutagenic call was measured for `CN(C)CCO` , tested on CCRIS mutagenicity, Ames/micronucleus/aberration tests?
result: inactive; negative

query: Request - read-out mutagenic call | tested on CCRIS mutagenicity, Ames/micronucleus/aberration tests | molecule `CCCCCCCCCCCC(=O)N(CCO)CCO`
result: inactive; negative

query: Identify the measured mutagenic call of `Cc1ccccc1N` for CCRIS mutagenicity, Ames/micronucleus/aberration tests.
result: active; positive

---

# Test system: CCRIS mutagenicity, Ames/micronucleus/aberration tests
# experiment notes: CCRIS mutagenicity studies
# measurement conditions: Test System: AMES SALMONELLA TYPHIMURIUM; Strain/Indicator: TA1535; Metabolic Activation: RAT, LIVER, S-9, AROCLOR 1254 (10%); Method: PREINCUBATION
Calls of active or inactive are those of the source. The rule behind the calls is not given here.
// classify into 1.0 (active), 0.0 (inactive)

O=c1nc(O)n(Cl)c(=O)n1Cl | 0.0

Consider the record given below.
query: Could you please tell me the result logged for `CCCCN(CCO)CCCC` in this assay?
result: 0.0

---

# Test system: CCRIS mutagenicity, Ames/micronucleus/aberration tests
# experiment notes: CCRIS mutagenicity studies
# measurement conditions: Test System: Ames Salmonella typhimurium; Strain/Indicator: TA98; Metabolic Activation: None; Method: Standard plate
# From the text: The CCRIS database contains chemical records with carcinogenicity, mutagenicity, tumor promotion, and tumor inhibition test results. It was developed by the National Cancer Institute (NCI). Data are derived from studies cited in primary journals, current awareness tools, NCI reports, and other sources. Test results have been reviewed by experts in carcinogenesis and mutagenesis. CCRIS provides historical information from the years 1985 - 2011. It is no longer updated. […]
The source made the active and inactive calls. No rule for the calls is given here.
Valid outcomes are listed here; reply with one: active, inactive

O=c1c(O)c(-c2ccc(O)c(O)c2)oc2cc(O)cc(O)c12 | active
Nc1cc([N+](=O)[O-])c(CO)c([N+](=O)[O-])c1 | active
Cc1ccc([N+](=O)[O-])c(S(=O)(=O)O)c1[N+](=O)[O-] | inactive

Now consider a different compound.
query: Hi team, can someone confirm the assay call for `COc1cc(-c2cc(=O)c3c(O)cc(O)cc3o2)ccc1O` ?
result: inactive

---

# System: CCRIS mutagenicity, Ames/micronucleus/aberration tests
# experiment notes: CCRIS mutagenicity studies
# measurement conditions: Test System: Ames Salmonella typhimurium; Strain/Indicator: TA1535; Metabolic Activation: None; Method: Preincubation
The source made the active and inactive calls. The rule behind the calls is not given here.
outcome measure: mutagenic call

Here are 8 compounds together with their reported answers.
N#CCCC(Br)(C#N)CBr (stereo unspecified) | inactive; negative
C1N2CN3CN1CN(C2)C3 | inactive; negative
O=C([O-])c1ccccn1.O=C([O-])c1ccccn1.O=C([O-])c1ccccn1.[Cr+3] | inactive; negative
C=COC(C)=O | inactive; negative
CC(=O)CC(=O)Nc1ccccc1C | inactive; negative
CC(C)CO | inactive; negative
CNc1ccc(O)c2c1C(=O)c1c(O)ccc(NC)c1C2=O | active; positive
CCN(CC[N+](C)(C)C)c1ccc(N=Nc2ccc([N+](=O)[O-])cc2Cl)cc1 | inactive; negative

Now for a further compound.
query: Which mutagenic call value is on record for `O=C(O)CCCl` ?
result: active; positive
